# target desc: Fatty acid synthase (Homo sapiens, UniProt P49327)
# Sequence (P49327 whole entry): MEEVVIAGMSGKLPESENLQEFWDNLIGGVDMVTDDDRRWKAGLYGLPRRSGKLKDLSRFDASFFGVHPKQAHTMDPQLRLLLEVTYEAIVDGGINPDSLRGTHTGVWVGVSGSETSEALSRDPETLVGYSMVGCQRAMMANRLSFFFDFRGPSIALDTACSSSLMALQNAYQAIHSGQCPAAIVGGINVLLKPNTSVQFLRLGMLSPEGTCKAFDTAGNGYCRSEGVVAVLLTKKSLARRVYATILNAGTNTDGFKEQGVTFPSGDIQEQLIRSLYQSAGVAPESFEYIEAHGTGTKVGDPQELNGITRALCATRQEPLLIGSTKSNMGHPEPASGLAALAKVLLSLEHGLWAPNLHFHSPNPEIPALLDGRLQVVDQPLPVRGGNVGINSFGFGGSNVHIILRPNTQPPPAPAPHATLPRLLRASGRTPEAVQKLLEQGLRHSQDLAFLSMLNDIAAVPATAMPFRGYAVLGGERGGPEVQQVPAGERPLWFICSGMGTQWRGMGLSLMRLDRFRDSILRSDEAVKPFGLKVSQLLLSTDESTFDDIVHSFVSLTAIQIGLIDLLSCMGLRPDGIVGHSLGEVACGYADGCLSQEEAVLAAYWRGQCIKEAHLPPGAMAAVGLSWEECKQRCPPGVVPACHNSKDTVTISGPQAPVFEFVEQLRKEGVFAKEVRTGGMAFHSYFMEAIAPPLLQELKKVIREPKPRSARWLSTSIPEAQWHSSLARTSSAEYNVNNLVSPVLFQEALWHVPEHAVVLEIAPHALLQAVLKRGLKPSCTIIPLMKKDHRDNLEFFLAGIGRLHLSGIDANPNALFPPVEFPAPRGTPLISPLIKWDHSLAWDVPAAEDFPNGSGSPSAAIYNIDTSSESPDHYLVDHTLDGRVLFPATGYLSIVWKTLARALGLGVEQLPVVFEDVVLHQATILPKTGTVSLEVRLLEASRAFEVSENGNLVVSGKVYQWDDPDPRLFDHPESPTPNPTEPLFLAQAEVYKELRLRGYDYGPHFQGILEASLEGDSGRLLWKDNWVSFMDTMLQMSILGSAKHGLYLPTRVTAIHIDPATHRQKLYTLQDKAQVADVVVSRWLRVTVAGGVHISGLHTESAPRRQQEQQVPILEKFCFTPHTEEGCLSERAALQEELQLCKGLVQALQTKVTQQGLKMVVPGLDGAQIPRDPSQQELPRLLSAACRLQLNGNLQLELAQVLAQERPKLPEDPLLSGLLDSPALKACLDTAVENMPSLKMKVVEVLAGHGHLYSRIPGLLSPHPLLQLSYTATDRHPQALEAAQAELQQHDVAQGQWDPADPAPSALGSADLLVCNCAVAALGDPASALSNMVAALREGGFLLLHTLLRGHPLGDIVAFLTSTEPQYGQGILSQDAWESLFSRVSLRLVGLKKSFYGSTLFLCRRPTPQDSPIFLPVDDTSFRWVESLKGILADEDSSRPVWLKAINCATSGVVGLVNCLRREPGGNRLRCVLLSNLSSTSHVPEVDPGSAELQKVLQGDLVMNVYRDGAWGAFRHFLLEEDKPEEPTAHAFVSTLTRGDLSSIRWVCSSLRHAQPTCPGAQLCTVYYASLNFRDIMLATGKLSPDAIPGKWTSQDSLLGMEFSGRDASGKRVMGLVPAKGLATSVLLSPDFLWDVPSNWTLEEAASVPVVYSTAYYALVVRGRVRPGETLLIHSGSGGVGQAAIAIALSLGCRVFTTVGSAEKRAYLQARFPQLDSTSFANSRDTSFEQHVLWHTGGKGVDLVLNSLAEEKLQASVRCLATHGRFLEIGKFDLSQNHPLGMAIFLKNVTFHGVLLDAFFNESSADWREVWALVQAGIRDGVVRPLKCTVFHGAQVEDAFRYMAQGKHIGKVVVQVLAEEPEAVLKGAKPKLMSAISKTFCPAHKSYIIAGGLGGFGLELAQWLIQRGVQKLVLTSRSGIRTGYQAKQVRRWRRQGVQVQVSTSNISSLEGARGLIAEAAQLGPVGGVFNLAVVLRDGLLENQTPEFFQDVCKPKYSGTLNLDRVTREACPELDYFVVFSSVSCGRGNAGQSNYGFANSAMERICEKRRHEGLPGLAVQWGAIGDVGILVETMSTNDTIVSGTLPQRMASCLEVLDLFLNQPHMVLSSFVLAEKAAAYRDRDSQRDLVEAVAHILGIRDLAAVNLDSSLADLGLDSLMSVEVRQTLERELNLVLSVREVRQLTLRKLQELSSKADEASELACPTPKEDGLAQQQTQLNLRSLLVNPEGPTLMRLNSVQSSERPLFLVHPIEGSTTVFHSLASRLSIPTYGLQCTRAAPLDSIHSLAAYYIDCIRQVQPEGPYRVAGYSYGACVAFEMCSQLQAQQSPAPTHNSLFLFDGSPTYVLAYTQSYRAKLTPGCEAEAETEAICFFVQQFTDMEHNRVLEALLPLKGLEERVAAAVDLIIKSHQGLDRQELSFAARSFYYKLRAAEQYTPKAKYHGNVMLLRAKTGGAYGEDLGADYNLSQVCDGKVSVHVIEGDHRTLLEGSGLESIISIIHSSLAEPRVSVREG
# run description: inhibition of human FAS-TE enzyme activity – biochemical, endpoint fluorescence intensity, uHTS hits, dose response (AID 624327);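 further: fluorescence from hydrolysis of an O-methyl fluorescein acyl ester substrate by the enzyme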
# Format: functional
Activity calls are given as the source filed them. No stated cut-off is given here; in the data, active = IC50 of 20 µM or less and inactive = more.
property measured: IC50

Solved entries:
compound	target desc	IC50
NC(=S)N/N=C/c1ccc(-c2ccc(SC(F)F)cc2)o1	Fatty acid synthase (Homo sapiens, UniProt P49327)	16.9 µM (active)
Cc1coc(NC(=O)CSc2nc(-c3ccncc3)cc(C(F)(F)F)c2C#N)n1	Fatty acid synthase (Homo sapiens, UniProt P49327)	18.5 µM (active)
Cc1noc(C)c1NC(=O)Nc1cccc2c1O[C@H](CN(C)C(=O)Nc1ccccc1)[C@@H](C)CN([C@H](C)CO)C2=O	Fatty acid synthase (Homo sapiens, UniProt P49327)	13 µM (active)
Fc1ccc(-n2c(Cc3ccccc3)nnc2SCc2nc(-c3ccc(Cl)cc3)no2)cc1	Fatty acid synthase (Homo sapiens, UniProt P49327)	14 µM (active)
Cc1cc(C)c(Cn2cnc(-c3ccc([N+](=O)[O-])cc3)c2)c(C)c1	Fatty acid synthase (Homo sapiens, UniProt P49327)	12.9 µM (active)

input: # IC50 lookup, item CCN(CC)S(=O)(=O)c1ccc(N2CCc3ccccc3C2)nc1
output: 4.19 µM (active)

input: Request the reported IC50 associated with O=C(CC1C[C@H](C(=O)N2CCOCC2)[C@@]2(CCC3CCCC3)c3[nH]c4ccccc4c3CCN2C1=O)NCCN1CCOCC1 (some centres not stated)
output: 2.6 µM (active)

input: // returns reported IC50 for input O=C(/C=C/c1cccc([N+](=O)[O-])c1)NCCc1ccc(F)cc1
output: 10.7 µM (active)

input: Given the entry O=C(c1cc2cc3ccc(Cl)cc3nc2o1)N1CCCCCC1 , report its measured IC50.
output: 18.7 µM (active)

input: GET /values?readout=IC50&item= Cc1c(C)c2ccc(OCC(=O)N3CCN(c4ccccc4)CC3)cc2oc1=O
output: 5.34 µM (active)

input: # input compound: O=C(COC(=O)c1cccc([N+](=O)[O-])c1)NC1CCCC1 ; wanted: its IC50
output: 9.58 µM (active)

input: Dear colleague, I am looking for the recorded IC50 of the following compound: Cc1ccn2c(=O)nc(SCC(=O)N3N=C(c4cccs4)CC3c3ccc(F)cc3)nc2c1 (configuration not stated)
output: 13.9 µM (active)
